Provenance of the data: patent US20240002401A1

# Procedure Text: Pharmacokinetics test in mice
# Type: in vivo
# Condition Parameters: mouse; Intravenous injection (1 mg/kg), male SD mice, plasma
Let's look at some compounds and their measured half-life.
Supply the numeric figure in h, leaving out any unit text.

Known results for compounds:
- Compound: "CCc1nc2sc(C3CCN(CC(=O)NCC(F)F)CC3)cn2c1N(CC)c1nc(-c2ccc(F)cc2)c(C#N)s1 [Embodiment 11]"
  Property Label: "half-life"
  Units: "h"
  Val: 4.69
- Compound: "CCc1nc2sc(C3CCN(CC(=O)NC4COC4)CC3)cn2c1N(CC)c1nc(-c2ccc(F)cc2)c(C#N)s1 [Embodiment 21]"
  Property Label: "half-life"
  Units: "h"
  Val: 3.32
- Compound: "CCc1nc2sc(C3CCN(CC(=O)N4CC(O)C4)CC3)cn2c1N(c1nc(-c2ccc(F)cc2)c(C#N)s1)C(C)C [Embodiment 25]"
  Property Label: "half-life"
  Units: "h"
  Val: 3.11
- Compound: "CCc1nc2sc(C3CCN(CC(=O)N4CC(O)C4)CC3)cn2c1N(c1nc(-c2ccc(F)cc2)c(C#N)s1)C1CC1 [Embodiment 24]"
  Property Label: "half-life"
  Units: "h"
  Val: 2.14
- Compound: "CCc1nc2sc(C3CCN(CC(=O)N4CCOCC4)CC3)cn2c1N(CC)c1nc(-c2ccc(F)cc2)c(C#N)s1 [Embodiment 22]"
  Property Label: "half-life"
  Units: "h"
  Val: 4.56

Query: Recorded half-life for [2H]C([2H])([2H])C([2H])([2H])N(c1nc(-c2ccc(F)cc2)c(C#N)s1)c1c(CC)nc2sc(C3CCN(CC(=O)N4CC(O)C4)CC3)cn12 [Embodiment 7] , please?
Reply: 3.97

Query: And then CCc1nc2sc(C3CCN(CC(=O)N4CC(O)C4)CC3)cn2c1N(CC1CC1)c1nc(-c2ccc(F)cc2)c(C#N)s1 [Embodiment 2] , what is it?
Reply: 2.84

Query: Then what about the compound CCc1nc2sc(C3CCN(CC(=O)NC4CCOCC4)CC3)cn2c1N(CC)c1nc(-c2ccc(F)cc2)c(C#N)s1 [Embodiment 23] ?
Reply: 4.18

Query: Try the compound CCc1nc2sc(C3CCN(CC(=O)N4CC(O)C4)CC3)cn2c1N(CC)c1nc(-c2ccc(F)cc2)c(C#N)s1 [Embodiment 1]
Reply: 4.18

---

# Procedure Text: Pharmacokinetics test in mice
# Type: in vivo
# Condition Parameters: mouse; Intravenous injection (1 mg/kg), male SD mice, plasma
Property Label: AUC (ng·h/mL)
Please state the figure in ng·h/mL; there is no need to write the unit.

Use the examples below as a reference point.
- Compound Smiles: "CCc1nc2sc(C3CCN(CC(=O)N4CC(O)C4)CC3)cn2c1N(CC1CC1)c1nc(-c2ccc(F)cc2)c(C#N)s1"
  Property Label: "AUC"
  Val: 972
- Compound Smiles: "CCc1nc2sc(C3CCN(CC(=O)N4CC(O)C4)CC3)cn2c1N(c1nc(-c2ccc(F)cc2)c(C#N)s1)C1CC1"
  Property Label: "AUC"
  Val: 1170

Next:
Query: So what does the record say about AUC for "CCc1nc2sc(C3CCN(CC(=O)N4CCOCC4)CC3)cn2c1N(CC)c1nc(-c2ccc(F)cc2)c(C#N)s1" ?
Reply: 649
